The measured values listed here are drawn from ChEMBL document CHEMBL1125079.

# assay.comment: Potentiometric pKa(in 25 mL of water) of the compound.
# Format: physicochemical
outcome.measure: pKa
Reply with just the number.

Give the measured pKa for NC(CCCCCP(=O)(O)O)C(=O)O (stereo unspecified)
7.72

---

Listing: pKa of selected compounds
# assay.comment: Dissociation constant (pKa)
# Assay type: physicochemical
Reply with just the number.

Before answering, review these 5 worked examples.
| compound | result |
| --- | --- |
| O=S(=O)(Cc1ccccc1)c1c[nH]nn1 | 5.15 |
| [O-][S+](Cc1ccccc1)c1nc(O)n[nH]1 (stereo unspecified) | 5.2 |
| NC(CCCCCP(=O)(O)O)C(=O)O (stereo unspecified) | 2.64 |
| c1ccc(CSc2c[nH]nn2)cc1 | 8.2 |
| [O-][S+](Cc1ccccc1)c1ncc[nH]1 (stereo unspecified) | 9.8 |

Give the measured pKa for NC(CCCCCSc1cc(Cl)ccc1O)C(=O)O (stereo unspecified)
8.55

Give the measured pKa for O=S(=O)(Cc1ccccc1)c1nc[nH]n1
6.23

Give the measured pKa for c1ccc(CSc2ncc[nH]2)cc1
11.6

Give the measured pKa for NC(CCCCCSc1ccccc1O)C(=O)O (stereo unspecified)
9.35

Give the measured pKa for c1ccc(CSc2nc[nH]n2)cc1
9.5

Give the measured pKa for NC(CCCCCS(=O)(=O)c1ccccc1O)C(=O)O (stereo unspecified)
7.38

Give the measured pKa for Oc1n[nH]c(SCc2ccccc2)n1
7.85

Give the measured pKa for [O-][S+](Cc1ccccc1)c1c[nH]nn1 (stereo unspecified)
6.09

Give the measured pKa for [O-][S+](Cc1ccccc1)c1nc[nH]n1 (stereo unspecified)
7.38

Give the measured pKa for O=S(=O)(Cc1ccccc1)c1nc(O)n[nH]1
4.79

Give the measured pKa for O=S(=O)(Cc1ccccc1)c1ncc[nH]1
8.67

---

# assay.comment: potentiometric pKa(in 25 mL of 1 M NaCl) of the compound.
# Format: physicochemical
outcome.measure: pKa
Reply with just the number.

Give the measured pKa for NC(CCCCCP(=O)(O)O)C(=O)O (stereo unspecified)
9.84
